// endpoint log10 of IC50 / system UniProt P0DTD1
measure: log10 of IC50 (log10 of the value in nM)

# molecule, measure, numeric-result
records = [
    ("O=C(Nc1cncc2cc(F)ccc12)[C@@H]1CCS(=O)(=O)c2ccc(Cl)cc21 (stereo in doubt)", "log10 of IC50", 2.47),
    ("O=C(Cc1cccc(Cl)c1F)Nc1cncc2ccccc12", "log10 of IC50", 4.37),
    ("CC1(C(=O)Nc2cncc3ccc(F)cc23)CNS(=O)(=O)c2ccc(Cl)cc21 (configuration not stated)", "log10 of IC50", 2.64),
    ("CC1CN(S(C)(=O)=O)CCC1NC(=O)CC1(C(=O)Nc2cncc3ccccc23)CCOc2ccc(Cl)cc21 (configuration not stated)", "log10 of IC50", 3.45),
    ("O=C(Nc1cncc2ccccc12)C1CCOc2c1ccc(Cl)c2Cl (configuration not stated)", "log10 of IC50", 3.52),
    ("O=C(Nc1cncc2ccccc12)C(NC[C@@H]1CC[C@H](C(=O)N2CCCC2)O1)c1cccc(Cl)c1 (stereo in doubt)", "log10 of IC50", 3.44),
]

====

For reference, pIC50 measured on SARS-CoV-2 Main Protease (SARS-CoV-2):
pIC50: −log10 of the molar value.

# compound, subject-of-test, result-qualifier, pIC50
data = [
    ("O=C(/C=C/c1ccccc1)N1CCN(S(=O)(=O)c2cccc(F)c2)CC1", "SARS-CoV-2 Main Protease (SARS-CoV-2)", "<", 4.00),
    ("O=C1CC(NC(=O)Cc2cccc(Cl)c2)C(=O)N1 (configuration not stated)", "SARS-CoV-2 Main Protease (SARS-CoV-2)", "<", 4.00),
    ("N#CCc1cccc(NC(=O)c2cnn3cc(Br)cnc23)n1", "SARS-CoV-2 Main Protease (SARS-CoV-2)", "<", 4.00),
    ("Cc1ccc(C(Cc2ccccc2)C(=O)Nc2nnn3ccccc23)cc1 (configuration not stated)", "SARS-CoV-2 Main Protease (SARS-CoV-2)", "<", 4.00),
    ("O=C1CCc2cc(C(=O)N3CCC(C4CCNC4)CC3)ccc2N1 (configuration not stated)", "SARS-CoV-2 Main Protease (SARS-CoV-2)", "<", 4.00),
    ("O=C(Nc1cncc2cc(F)ccc12)[C@H]1CCS(=O)(=O)c2ccc(Cl)cc21 (stereo in doubt)", "SARS-CoV-2 Main Protease (SARS-CoV-2)", "=", 4.61),
    ("CCCc1cc2c(cc1S(=O)(=O)N1CCN(c3ncccn3)CC1)OCO2", "SARS-CoV-2 Main Protease (SARS-CoV-2)", "<", 4.00),
    ("CC(C)(C)c1ccc(N(C(=O)c2ccco2)C(C(=O)NCCc2cccc(F)c2)c2cnc3ccccn23)cc1 (configuration not stated)", "SARS-CoV-2 Main Protease (SARS-CoV-2)", "=", 4.43),
    ("O=C(Nc1cncc2ccccc12)C1CN(S(=O)(=O)CCO)Cc2ccc(Cl)cc21 (configuration not stated)", "SARS-CoV-2 Main Protease (SARS-CoV-2)", "=", 6.63),
    ("O=C(Cc1cc(Cl)cc(Nc2ccc(O)cc2[N+](=O)[O-])c1)Nc1cncc2ccccc12", "SARS-CoV-2 Main Protease (SARS-CoV-2)", "=", 5.27),
    ("COc1ccccc1OCCNC(=O)c1cc(=O)[nH]c2cc(F)ccc12", "SARS-CoV-2 Main Protease (SARS-CoV-2)", "<", 4.00),
    ("O=C(Nc1cncc2ccccc12)C1CN(S(=O)(=O)C2CCOC2)Cc2ccc(Cl)cc21 (configuration not stated)", "SARS-CoV-2 Main Protease (SARS-CoV-2)", "=", 6.82),
    ("O=C(Cc1cc(Cl)cc(NCc2c(Cl)cccc2Cl)c1)Nc1cncc2ccccc12", "SARS-CoV-2 Main Protease (SARS-CoV-2)", "=", 5.57),
    ("CCOc1ccc(N(C(=O)c2cnc[nH]2)C(C(=O)NCCc2cccc(F)c2)c2cccnc2)cn1 (configuration not stated)", "SARS-CoV-2 Main Protease (SARS-CoV-2)", "<", 4.00),
    ("O=C(Cc1cc(Cl)cc(Nc2nnc(C(F)(F)F)s2)c1)Nc1cncc2ccccc12", "SARS-CoV-2 Main Protease (SARS-CoV-2)", "=", 5.61),
    ("O=C(NCCc1cccc(F)c1)C(c1cccnc1)N(C(=O)c1cocn1)C1CCN(c2ccccc2)C1 (configuration not stated)", "SARS-CoV-2 Main Protease (SARS-CoV-2)", "<", 4.00),
    ("O=C(NCCc1cccc(F)c1)C(c1cccnc1)N(Cc1ccccc1)C(=O)c1cnc[nH]1 (configuration not stated)", "SARS-CoV-2 Main Protease (SARS-CoV-2)", "<", 4.00),
]

====

The next entries give measured IC50 for SARS-CoV-2 Main Protease (SARS-CoV-2) (UniProt P0DTD1).
measure: IC50

# compound, subject-of-test, measure, result
data = [
    ("O=C(Nc1cncn1-c1cccnc1)C1CCOc2ccc(Cl)cc21 (stereo not drawn)", "SARS-CoV-2 Main Protease (SARS-CoV-2) (UniProt P0DTD1)", "IC50", "> 99.5 µM"),
    ("CC(c1ccccc1)N(C(=O)c1cnc[nH]1)C(C(=O)NCCc1cccc(F)c1)c1cccnc1 (stereo not drawn)", "SARS-CoV-2 Main Protease (SARS-CoV-2) (UniProt P0DTD1)", "IC50", "> 99 µM"),
    ("CC(C(=O)NS(=O)(=O)c1cnn(-c2cccc(C(F)(F)F)c2)c1)n1cnc(C#N)n1 (stereo not drawn)", "SARS-CoV-2 Main Protease (SARS-CoV-2) (UniProt P0DTD1)", "IC50", "> 99.5 µM"),
]

====

pIC50: −log10 of the molar value.
// each record: one item and its pIC50 for SARS-CoV-2 Main Protease (SARS-CoV-2) (UniProt P0DTD1)

# compound, pIC50
records = [
    ("O=C1O[C@@]2(CCOc3ccc(Cl)cc32)C(=O)N1c1cncc2ccccc12 (stereo in doubt)", "< 4.00"),
    ("O=C(Cn1nnc2ccccc21)N(Cc1ccccn1)c1cnc(-c2ccccc2)nc1", "< 4.00"),
    ("CN1CCn2nc(C(=O)N(c3ccc(C(C)(C)C)cc3)C(C(=O)NCCc3cccc(F)c3)c3cccnc3)cc2S1(=O)=O (centres undefined)", "< 4.00"),
    ("CCS(=O)(=O)Nc1ccc2c(NC(=O)C3CN(S(=O)(=O)CC4(C#N)CC4)Cc4ccc(Cl)cc43)cncc2c1 (centres undefined)", "> 7.30"),
]

====

IC50: recorded values
subject-of-test: SARS-CoV-2 Main Protease (SARS-CoV-2)

# compound, units-symbol, result-qualifier, IC50
measured = [
    ("COCOc1ccc(N(C(=O)c2cocn2)C(C(=O)NCCc2cccc(F)c2)c2cccnc2)cc1 (centres undefined)", "µM", "=", 13.2),
    ("Cc1ccncc1C(C(=O)NCCc1cccc(F)c1)N(C(=O)c1cocn1)c1ccc(C(C)(C)C)cc1 (centres undefined)", "µM", "=", 0.653),
    ("CC(C)c1ccncc1NC(=O)Cc1cccc(Cl)c1", "µM", "=", 19.5),
    ("O=C(Cc1c[nH]c2cc(Cl)ccc12)Nc1cccc2[nH]c(=O)[nH]c12", "µM", ">", 99.5),
    ("CN(C)CCCN(Cc1cccs1)C(=O)Cc1cncc2ccccc12", "µM", ">", 99.5),
    ("O=C(Cc1cc(Cl)cc(Nc2c(Cl)cncc2Cl)c1)Nc1cncc2ccccc12", "µM", "=", 2.04),
    ("CS(=O)(=O)Nc1ccc(Cl)cc1C(=O)N1CCC(C2CCNC2)CC1 (centres undefined)", "µM", ">", 99.5),
    ("O=C1N(c2cncc3ccccc23)CCC12CN(S(=O)(=O)CC1CS(=O)(=O)C1)Cc1ccc(Cl)cc12 (centres undefined)", "µM", "=", 0.353),
    ("COc1ncncc1C(C(=O)NCCc1cccc(F)c1)N(C(=O)c1cocn1)c1ccc(C(C)(C)C)cc1 (centres undefined)", "µM", "=", 8.43),
    ("N#CCC1(CS(=O)(=O)N2Cc3ccc(Cl)cc3C3(CCN(c4cncc5ccccc45)C3=O)C2)CC1 (centres undefined)", "µM", "=", 0.337),
    ("CCCCc1nc(-c2nccn2CCc2ccccn2)c[nH]1", "µM", "=", 21.7),
    ("O=C(Cc1cc(Cl)cc(N2CCN(C(=O)C3CC3)CC2)c1)Nc1cncc2ccccc12", "µM", "=", 2.01),
    ("N#CC1(CS(=O)(=O)N2Cc3ccc(Cl)cc3C3(CCN(c4cncc5ccccc45)C3=O)C2)CCOCC1 (centres undefined)", "µM", "=", 0.338),
    ("CNC(=O)C1(N2Cc3ccc(Cl)cc3C3(CCN(c4cncc5ccccc45)C3=O)C2)CC1 (centres undefined)", "µM", "=", 0.0732),
    ("COc1ccc([N+](=O)[O-])cc1COC(=O)c1cnc2ccccc2n1", "µM", ">", 99.5),
    ("O=C(Cc1cccc(Cl)c1)Nc1cncc2cc(OCC(F)(F)F)ccc12", "µM", ">", 99.5),
    ("N[C@@H](Cc1ccc(O)cc1)C(=O)Nc1cc(Cl)cc(CC(=O)Nc2cncc3ccccc23)c1 (stereo in doubt)", "µM", "=", 2.51),
    ("COc1cc(OC)[n+](C)c(C#N)n1", "µM", ">", 99.5),
    ("CS(=O)(=O)c1ccc(O)c(Nc2cc(Cl)cc(CC(=O)Nc3cncc4ccccc34)c2)c1", "µM", "=", 7.61),
]
